ASSAY TARGET: T1, His-MBP-Lin28TT (Homo sapiens, UniProt Q9H9Z2 32-187)
T1 sequence: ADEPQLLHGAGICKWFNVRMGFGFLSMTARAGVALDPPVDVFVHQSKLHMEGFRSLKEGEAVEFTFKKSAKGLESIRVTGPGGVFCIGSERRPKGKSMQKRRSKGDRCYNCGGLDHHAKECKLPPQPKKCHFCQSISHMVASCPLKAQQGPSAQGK
MEASUREMENT NOTES: fluorescence anisotropy; 500 mM NaCl; 50 uM ZnCl2; FA: 20 nM 5'-fluorescein RNA, 20 mM Tris-HCl pH 7.5, 50-750 mM NaCl (100 mM for the main miR-363 Kd), 10 mM beta-mercaptoethanol, 50 uM ZnCl2, 0.01% Tween 20, 2
PARAMETER MEASURED: pKd
FYI, pKd means -log10 of a concentration in mol per litre.

Item GAUGCAAUUUUGAUGAGUAUCAUAGGAG (structured_RNA) [miR-363 19-46] has what recorded pKd? 8.10
